Data provenance: patent US8486918B2

- system: human S1P1 receptor (Homo sapiens, UniProt P21453)
- Construct: membranes used
- Sequence (P21453 whole entry): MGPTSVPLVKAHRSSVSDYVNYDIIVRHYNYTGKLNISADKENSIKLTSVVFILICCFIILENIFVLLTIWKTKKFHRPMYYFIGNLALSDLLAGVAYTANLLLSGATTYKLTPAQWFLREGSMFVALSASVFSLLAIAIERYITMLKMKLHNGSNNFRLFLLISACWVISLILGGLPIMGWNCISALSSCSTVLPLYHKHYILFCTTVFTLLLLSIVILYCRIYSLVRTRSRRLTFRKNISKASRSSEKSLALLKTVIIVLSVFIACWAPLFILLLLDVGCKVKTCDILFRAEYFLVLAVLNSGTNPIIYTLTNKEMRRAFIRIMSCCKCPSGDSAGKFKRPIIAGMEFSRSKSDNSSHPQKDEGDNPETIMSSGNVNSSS
- protocol: GTP γ35S binding assay for S1P1 activity
- study-conditions: membranes of cells stably expressing the S1P1 receptor, test concentrations 0.08 to 5,000 nM
pEC50: −log10 of the molar value.
Measured pEC50 values are reported for all entries that follow.

{"molecule": "CCc1ccc(OC(c2cccc(Cl)c2)c2nc(-c3ccc(CNCCC(=O)O)cc3)no2)cc1 (centres unmarked)", "system": "human S1P1 receptor (Homo sapiens, UniProt P21453)", "pEC50": 5.97}
{"molecule": "Cc1ccc(SC(c2nc(-c3ccc(CNCCC(=O)O)cc3)no2)c2ccccc2Cl)cc1C (centres unmarked)", "system": "human S1P1 receptor (Homo sapiens, UniProt P21453)", "pEC50": 6.84}
{"molecule": "CCCc1ccc(OC(c2cccc(Cl)c2)c2nc(-c3ccc(CNCCC(=O)O)cc3)no2)cc1 (centres unmarked)", "system": "human S1P1 receptor (Homo sapiens, UniProt P21453)", "pEC50": 5.80}
{"molecule": "O=C(O)CCNCc1ccc(-c2noc(C(Oc3cccc(Cl)c3)c3ccccc3Cl)n2)cc1 (centres unmarked)", "system": "human S1P1 receptor (Homo sapiens, UniProt P21453)", "pEC50": 5.67}
{"molecule": "CCCc1cccc(OC(c2cccc(Cl)c2)c2nc(-c3ccc(CNCCC(=O)O)cc3)no2)c1 (centres unmarked)", "system": "human S1P1 receptor (Homo sapiens, UniProt P21453)", "pEC50": 5.68}
{"molecule": "COc1ccc(OC(c2nc(-c3ccc(CNCCC(=O)O)cc3)no2)c2ccccc2Cl)cc1C (centres unmarked)", "system": "human S1P1 receptor (Homo sapiens, UniProt P21453)", "pEC50": 6.68}
{"molecule": "Cc1ccc(SC(c2cccc(Cl)c2)c2nc(-c3cc(C)c(OCC(O)CO)c(C)c3)no2)cc1C (centres unmarked)", "system": "human S1P1 receptor (Homo sapiens, UniProt P21453)", "pEC50": 7.52}
{"molecule": "Cc1ccc(OC(c2cccc(Cl)c2)c2nc(-c3ccc(CNCCC(=O)O)cc3)no2)cc1 (centres unmarked)", "system": "human S1P1 receptor (Homo sapiens, UniProt P21453)", "pEC50": 6.38}
